# experimentalTarget: T1, Ala mutant SEQ ID NO: 41 (human)
# T1 sequence (peptide): EENMDDQWMQDEMEAGY
# protocolDescription: ELISA, peptide on plate (10 ug/mL)
Collected absorbance 490 nm/630 nm values appear next to each entry.
Report the value in OD with no unit label.

Worked set:
* G6 (antibody, IgG1, V domains shown) VH: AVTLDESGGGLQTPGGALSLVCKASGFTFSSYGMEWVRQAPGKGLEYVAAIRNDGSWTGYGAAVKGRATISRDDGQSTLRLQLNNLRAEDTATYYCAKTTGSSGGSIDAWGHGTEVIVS VL: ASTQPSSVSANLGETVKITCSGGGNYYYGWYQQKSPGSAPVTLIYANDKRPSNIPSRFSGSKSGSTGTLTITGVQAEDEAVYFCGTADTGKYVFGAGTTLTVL | 1.87
* H7 (antibody, IgG1, V domains shown) VH: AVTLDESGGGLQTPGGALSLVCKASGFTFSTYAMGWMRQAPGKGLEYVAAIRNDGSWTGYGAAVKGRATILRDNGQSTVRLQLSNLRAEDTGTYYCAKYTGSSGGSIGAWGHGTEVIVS VL: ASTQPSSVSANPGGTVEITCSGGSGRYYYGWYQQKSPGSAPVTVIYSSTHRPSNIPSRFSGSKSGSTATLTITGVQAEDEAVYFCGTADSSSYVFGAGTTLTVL | 1.83
* G9 (antibody, IgG1, V domains shown) VH: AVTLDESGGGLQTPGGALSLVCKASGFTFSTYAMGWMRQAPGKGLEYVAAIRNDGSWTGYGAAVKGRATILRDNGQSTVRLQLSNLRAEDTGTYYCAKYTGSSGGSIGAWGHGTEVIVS VL: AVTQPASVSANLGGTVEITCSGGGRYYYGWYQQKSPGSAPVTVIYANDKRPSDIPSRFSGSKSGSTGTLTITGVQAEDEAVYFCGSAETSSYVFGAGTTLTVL | 1.89

Query binder follows.
So what's the measured absorbance 490 nm/630 nm for this one? G8 (antibody, IgG1, V domains shown) VH: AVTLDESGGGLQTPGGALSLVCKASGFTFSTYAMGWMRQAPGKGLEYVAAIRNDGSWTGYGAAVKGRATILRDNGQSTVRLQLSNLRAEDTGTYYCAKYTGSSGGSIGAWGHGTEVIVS VL: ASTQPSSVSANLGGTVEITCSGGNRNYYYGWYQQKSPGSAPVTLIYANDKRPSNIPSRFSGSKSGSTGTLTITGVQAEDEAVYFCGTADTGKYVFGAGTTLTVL 1.85
